Values from patent US20180185450A1

Target: human GLP-1 receptor (human, UniProt P43220 24-463)
Assay: cell-based or functional assay
Numbered stars: 1 amine (or outer) side, 2 acyl side, 3 side chain; on linkers, the order of the positions; unused ones are H or OH. Square brackets hold non-standard residues; d marks the D form. Side chains are listed from the residue outwards. Ends that are not written are not given here. γGlu = O=C(O)[C@H](CCC(=O)[*:2])N[*:1]; X70 = not defined here; Aib = CC(C)(N)C(=O)O
EC50 hGLP-1R (cAMP) values, listed per item

| BINDER | UNITS_SYMBOL | EC50 hGLP-1R (cAMP) |
| --- | --- | --- |
| HXQGTFTSDLSKQMDSRRAQDFIEWLKRGGPSSGAPPPS (dSer at 2; C-terminal NH2) [SEQ ID NO: 185] | pM | 75.7 |
| HXQGTFTSDLSKQLDEEAARLFIEWLKAGGPSSGAPPPS (Aib at 2; C-terminal NH2) [SEQ ID NO: 224] | pM | 1.3 |
| HXQGTFTSDLSKQKDSRRAQDFIEWLKXGGPSSGAPPPS (dSer at 2; K(γE-x53) at 14; Aib at 28; C-terminal NH2) [SEQ ID NO: 78] | pM | 17.8 |
| HXQGTFTSDLSKQKDSKAAQDFIEWLKAGGPSSGAPPPS (dSer at 2; K(γE-x53) at 14; C-terminal NH2) [SEQ ID NO: 30] | pM | 3.2 |
| H[Aib]QGTFTSDLSKQK([γGlu-X70])DEEAARLFIEWLKAGGPSSGAPPPS-NH2 (reading uncertain) [SEQ ID NO: 216] | pM | 4.7 |
| HXQGTFTSDLSKQMDSRRAQDFIEWLKNGGPSSGAPPPS (Aib at 2; C-terminal NH2) [SEQ ID NO: 182] | pM | 5.8 |
